test_description: in vitro
particulars: male, BALB/c, mouse, plasma, pH 7.4, % Bound Mean (SD)
measurement_label: fraction unbound at 4 h, 5 μM

1. CC(=O)CC(c1ccccc1)c1c(O)c2ccccc2oc1=O (stereo not shown) : 0.156

---

test_description: Mouse oral pharmacokinetic study
Type: in vivo, male BALB/c mice
particulars: male, BALB/c, mouse; plasma; 40 mg/kg PO single dose
measurement_label: Tmax (h)

1. Fc1cccc(COc2ccc(Nc3ncnc4ccc(-c5cccc(N6CCOCC6)c5)cc34)cc2Cl)c1 [Compound 23a] : 2

---

Test system: L. major promastigote
test_description: L. major promastigote assay
Type: cell-based
particulars: Leishmania major
Structures can show the parent of a compound that is named as a salt.
measurement_label: EC50

1) CN1CCCN(S(=O)(=O)c2ccc(-c3ccc4cnnc(Nc5ccc(OCc6cccc(F)c6)c(Cl)c5)c4c3)cc2)CC1 : > 15 µM
2) O=S(=O)(c1ccc(-c2ccc3ncnc(Nc4ccccc4)c3c2)cc1)N1CCOCC1 [Compound 20a, Hydrochloride] : 4.1 µM
3) CN1CCN(S(=O)(=O)c2ccc(-c3ccc4cnnc(Nc5ccc(OCc6cccc(F)c6)c(Cl)c5)c4c3)cc2)CC1 : > 3.2 µM
